Numbers sourced from patent US20240101528A1.

Target: recombinant guanylate cyclase reporter cell line (Rattus norvegicus)
Sequence (P20595 whole entry): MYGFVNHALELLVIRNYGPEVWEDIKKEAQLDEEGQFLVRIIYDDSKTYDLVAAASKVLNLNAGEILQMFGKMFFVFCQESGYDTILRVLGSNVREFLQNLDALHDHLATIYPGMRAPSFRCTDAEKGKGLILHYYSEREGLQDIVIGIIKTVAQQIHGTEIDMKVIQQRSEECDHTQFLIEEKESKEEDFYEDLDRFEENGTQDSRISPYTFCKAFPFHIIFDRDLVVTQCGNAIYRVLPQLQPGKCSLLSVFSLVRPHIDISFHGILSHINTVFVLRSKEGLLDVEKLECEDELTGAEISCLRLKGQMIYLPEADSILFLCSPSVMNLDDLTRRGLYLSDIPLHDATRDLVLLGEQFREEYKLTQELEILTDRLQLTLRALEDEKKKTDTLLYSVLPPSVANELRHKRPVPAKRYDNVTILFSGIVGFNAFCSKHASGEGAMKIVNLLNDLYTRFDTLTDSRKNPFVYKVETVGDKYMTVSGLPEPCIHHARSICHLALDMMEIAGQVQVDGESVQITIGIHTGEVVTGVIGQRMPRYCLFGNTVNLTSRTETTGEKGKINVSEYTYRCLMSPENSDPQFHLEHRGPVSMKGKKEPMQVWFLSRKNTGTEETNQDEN
Sequence (P19686 whole entry partner): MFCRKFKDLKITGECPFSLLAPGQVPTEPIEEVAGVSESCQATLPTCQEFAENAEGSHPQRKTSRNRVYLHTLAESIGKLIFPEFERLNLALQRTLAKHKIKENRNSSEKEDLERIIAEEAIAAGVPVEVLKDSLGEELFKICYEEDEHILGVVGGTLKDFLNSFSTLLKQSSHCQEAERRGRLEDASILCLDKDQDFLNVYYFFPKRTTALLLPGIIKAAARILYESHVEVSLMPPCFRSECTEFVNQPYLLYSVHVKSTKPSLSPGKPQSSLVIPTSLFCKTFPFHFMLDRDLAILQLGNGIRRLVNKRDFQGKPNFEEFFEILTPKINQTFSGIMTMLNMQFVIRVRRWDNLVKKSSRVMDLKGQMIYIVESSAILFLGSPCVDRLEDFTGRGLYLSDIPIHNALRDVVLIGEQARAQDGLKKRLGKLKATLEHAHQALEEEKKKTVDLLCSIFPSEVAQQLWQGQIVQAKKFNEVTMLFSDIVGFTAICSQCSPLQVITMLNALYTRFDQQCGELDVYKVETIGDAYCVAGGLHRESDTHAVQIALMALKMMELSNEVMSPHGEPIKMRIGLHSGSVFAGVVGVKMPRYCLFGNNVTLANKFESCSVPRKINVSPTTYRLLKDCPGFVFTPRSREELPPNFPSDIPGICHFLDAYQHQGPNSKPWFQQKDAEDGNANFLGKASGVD
Assay: Effect on a recombinant guanylate cyclase reporter cell line
Conditions: half maximal effective concentration
result type: EC50 (nM)

# annotated cases, reported EC50 shown
Query: Identify EC50 associated with the compound O=C(O)c1cnn(C2CCCN(c3cc(Cl)ccc3-c3ccc(N4CCN(CC5CC5(F)F)CC4)cc3)C2)c1C(F)F (single isomer, unassigned; diastereomer 1) [Example 28]
Response: 0.8

Query: Identify EC50 associated with the compound O=C(O)c1cnn(C2CCCN(c3cc(Cl)ccc3-c3ccc(N4CCN(CC(F)(F)F)CC4)nc3)C2)c1C(F)F (single isomer, unassigned; enantiomer 1) [Example 64]
Response: 1.9

Query: Identify EC50 associated with the compound O=C(O)c1cnn(C2CCCN(c3cc(Cl)ccc3-c3cnc(N4CCN(CC5CC5)CC4)nc3)C2)c1C(F)F (single isomer, unassigned; enantiomer 2)
Response: 18

[P] O=C(O)c1cnn(C2CCCN(c3cc(Cl)ccc3-c3ccc(N4CCN(CC56CC(F)(C5)C6)CC4)cc3)C2)c1C(F)F (single isomer, unassigned; enantiomer 2)
[Q] O=C(O)c1cnn(C2CCCN(c3cc(Cl)ccc3-c3ccc(N4CCN(CC5CC5C(F)(F)F)CC4)cc3)C2)c1C(F)F (mixture of isomers) [Example 38]
Query: Choose between P and Q : whose measured EC50 value is numerically larger? Answer with the label corresponding to your selection.
Response: P
(P: 10.2 nM, Q: 7.1 nM)
